Tested on: CYP2B6
Assay Text: CYP2B6 enzyme induction assay in cryopreserved HepaRG cells (bupropion probe, LC/MS); also: key: 1=Positive=inducer; 0=Negative=non-inducer
Type: in vitro ADME, human
Experimental Parameters: HepaRG; Lab 2; batch 36
Counter-ions that a name gives are not always drawn.
Measure: Assigned classification CYP2B6

Fill in Assigned classification CYP2B6 for record COCCc1ccc(OCC(O)CNC(C)C)cc1 (stereo not shown) [Metoprolol]
0

Fill in Assigned classification CYP2B6 for record O=C1NC(=O)C(c2ccccc2)(c2ccccc2)N1 [Phenytoin sodium]
1

Fill in Assigned classification CYP2B6 for record COc1ccc2[nH]c([S+]([O-])Cc3ncc(C)c(OC)c3C)nc2c1 (stereo not shown) [Omeprazole]
1

A: CC(C)NCC(O)c1ccc(NS(C)(=O)=O)cc1 (stereo not shown) [Sotalol hydrochloride]
B: NC(=O)N1c2ccccc2C=Cc2ccccc21 [Carbamazepine]
Looking only at measured Assigned classification CYP2B6, which entry is lower, A or B ? Write the label of whichever entry you select.
A
(A: 0, B: 1)

P: COc1ccccc1Oc1c(NS(=O)(=O)c2ccc(C(C)(C)C)cc2)nc(-c2ncccn2)nc1OCCO [Bosentan hydrate]
Q: CO[C@H]1/C=C/O[C@@]2(C)Oc3c(C)c(O)c4c(O)c(c(/C=N/N5CCN(C)CC5)c(O)c4c3C2=O)NC(=O)/C(C)=C\C=C\[C@H](C)[C@H](O)[C@@H](C)[C@@H](O)[C@@H](C)[C@H](OC(C)=O)[C@@H]1C [Rifampicin]
Looking only at measured Assigned classification CYP2B6, which entry is lower, P or Q ? Write the label of whichever entry you select.
P
